Target or system: T1, Human C5 (human, UniProt P01031 19-1676)
T1 construct: The natural protein has a beta and an alpha chain; also called complement factor 5; complement component 5
Experiment summary: SPR, mAb captured by anti-hFc, 37C
Measured t½, listed per entry for reference.
Readout label: t½ (min)

[[record]]
binder = "H4H12166P2 (antibody, human IgG4, V domains shown, human IgG4 Fc with S108P hinge mutation) VH: QVQLQESGPGLVKPSETLSLTCTVSGDSVSSSYWTWIRQPPGKGLEWIGYIYYSGSSNYNPSLKSRATISVDTSKNQFSLKLSSVTAADTAVYYCAREGNVDTTMIFDYWGQGTLVTVSS VL: AIQMTQSPSSLSASVGDRVTITCRASQGIRNDLGWYQQKPGKAPKLLIYAASSLQSGVPSRFAGRGSGTDFTLTISSLQPEDFATYYCHQDFNYPWTFGQGTKVEIK"
measured = 9

[[record]]
binder = "H4H12166P4 (antibody, human IgG4, V domains shown, human IgG4 Fc with S108P hinge mutation) VH: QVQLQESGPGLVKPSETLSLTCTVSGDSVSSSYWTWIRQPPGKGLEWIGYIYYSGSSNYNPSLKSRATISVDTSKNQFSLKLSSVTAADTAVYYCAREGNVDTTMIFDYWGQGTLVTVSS VL: AIQMTQSPSSLSASVGDRVTITCRASQGIRNDLGWYQQKPGKAPKLLIYAASSLQSGVPSRFAGRGSGTDFTLTISSLQPEDFATYYCLQDFNYPWHFGQGTKVEIK"
measured = 25

